We begin with a simple list: items and their reported neutralization IC50.
target system: Env of HIV-1 strain ZM53M.PB12 (HIV-1)
procedure summary: cell-based or functional assay
outcome measure: neutralization IC50

INSERT INTO results (binder, outcome_measure, measured_value) VALUES
  ('8ANC195 IgG (antibody, V domains shown) VH: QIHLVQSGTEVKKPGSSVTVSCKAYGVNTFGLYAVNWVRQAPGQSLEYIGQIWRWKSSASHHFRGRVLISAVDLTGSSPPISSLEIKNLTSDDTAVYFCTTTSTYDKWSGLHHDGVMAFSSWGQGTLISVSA VL: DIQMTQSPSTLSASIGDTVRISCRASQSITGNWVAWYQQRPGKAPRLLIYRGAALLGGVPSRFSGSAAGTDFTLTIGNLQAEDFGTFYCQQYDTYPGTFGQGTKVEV', 'neutralization IC50', '9.63 µg/mL'),
  ('γ23κ11 (antibody, V domains shown) VH: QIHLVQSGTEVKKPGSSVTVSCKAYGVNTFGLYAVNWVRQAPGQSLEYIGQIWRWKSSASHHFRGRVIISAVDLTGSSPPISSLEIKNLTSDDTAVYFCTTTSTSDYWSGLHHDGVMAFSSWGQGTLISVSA VL: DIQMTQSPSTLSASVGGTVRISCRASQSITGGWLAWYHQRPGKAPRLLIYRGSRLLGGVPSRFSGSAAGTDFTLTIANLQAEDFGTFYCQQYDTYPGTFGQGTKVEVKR', 'neutralization IC50', '> 15 µg/mL'),
  ('γ22κ5 (antibody, V domains shown) VH: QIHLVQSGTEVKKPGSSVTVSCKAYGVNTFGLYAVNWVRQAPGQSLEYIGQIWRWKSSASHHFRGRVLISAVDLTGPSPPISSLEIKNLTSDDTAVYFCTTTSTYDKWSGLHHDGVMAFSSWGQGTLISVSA VL: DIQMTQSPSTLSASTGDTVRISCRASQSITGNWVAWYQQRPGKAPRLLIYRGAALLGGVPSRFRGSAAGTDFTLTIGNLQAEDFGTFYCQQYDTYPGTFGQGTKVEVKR', 'neutralization IC50', '> 15 µg/mL');
